This collection of values is drawn from ChEMBL document CHEMBL3885861.

Species on record: Rattus norvegicus
Experiment: Open TG-GATES - Regimen: Daily Repeat
Assay type: toxicity, organism-based, Sprague-Dawley
Design: regimen Daily Repeat, gender Male, age 6 weeks
Conditions: in vivo, po, 0 mg/kg, […], tissue Blood, route gavage, dose level Control, time 14 day
ENDPOINT: MCHC (%)
Answer in %, number only, no unit symbol.

MOLECULE	MCHC / %
C[C@H](CS)C(=O)N1CCC[C@H]1C(=O)O [CAPTOPRIL]	33.1

Exercise: # query: MCHC of entry NC(=O)N/N=C/c1ccc([N+](=O)[O-])o1 [NITROFURAZONE]
Solution: 32.8

Exercise: # query: MCHC of entry Cn1c(=O)c2[nH]cnc2n(C)c1=O.O [THEOPHYLLINE]
Solution: 34.1

Exercise: # query: MCHC of entry CSc1ccc2c(c1)N(CCC1CCCCN1C)c1ccccc1S2 (configuration not stated) [THIORIDAZINE]
Solution: 33.5

Exercise: # query: MCHC of entry Clc1ccccc1CN1CCc2sccc2C1 [TICLOPIDINE]
Solution: 36.2

Exercise: # query: MCHC of entry O=C(O)c1cn(C2CC2)c2cc(N3CCNCC3)c(F)cc2c1=O [CIPROFLOXACIN]
Solution: 33.1

Exercise: # query: MCHC of entry O=C(O)c1cc(/N=N/c2ccc(S(=O)(=O)Nc3ccccn3)cc2)ccc1O [SULFASALAZINE]
Solution: 35.3

---

Property: Eos; scope: individual compounds
Species on record: Rattus norvegicus
Experiment: Open TG-GATES - Regimen: Single
Type: toxicity, organism-based, Sprague-Dawley
Set-up: regimen Single, gender Male, age 6 weeks
Details: in vivo, po, 0 mg/kg, 3 h, tissue Blood, route gavage, dose level Control
Respond with the figure and its unit, in that order.

The examples below pair each entry with its known result.
COMPOUND	Eos
COc1ccc(Cc2nccc3cc(OC)c(OC)cc23)cc1OC [PAPAVERINE]	0.8%
Clc1ccccc1CN1CCc2sccc2C1 [TICLOPIDINE]	1%
NC(=O)N1c2ccccc2C=Cc2ccccc21 [CARBAMAZEPINE]	1%
CC(=O)Oc1ccccc1C(=O)O [ASPIRIN]	1.2%
Cn1c(=O)c2[nH]cnc2n(C)c1=O.O [THEOPHYLLINE]	0.8%
CN(C)CCC=C1c2ccccc2CCc2ccccc21 [AMITRIPTYLINE]	0.8%
CCc1cc(C(N)=S)ccn1 [ETHIONAMIDE]	1%
O=C(O)c1cc(/N=N/c2ccc(S(=O)(=O)Nc3ccccn3)cc2)ccc1O [SULFASALAZINE]	0.8%
O=C(O)c1cn(C2CC2)c2cc(N3CCNCC3)c(F)cc2c1=O [CIPROFLOXACIN]	0.6%
NC(=O)N/N=C/c1ccc([N+](=O)[O-])o1 [NITROFURAZONE]	0.6%

Exercise: # query: Eos of entry C[C@H](CS)C(=O)N1CCC[C@H]1C(=O)O [CAPTOPRIL]
Solution: 1.2%

Exercise: # query: Eos of entry CSc1ccc2c(c1)N(CCC1CCCCN1C)c1ccccc1S2 (configuration not stated) [THIORIDAZINE]
Solution: 0.6%

---

Species on record: Rattus norvegicus
Test: Open TG-GATES - Regimen: Single
Format: toxicity, organism-based, Sprague-Dawley
Set-up: regimen Single, gender Male, age 6 weeks
Details: in vivo, po, 0 mg/kg, 3 h, tissue Plasma, route gavage, dose level Control
ENDPOINT: IP (mg/dL)
Answer in mg/dL, number only, no unit symbol.

COMPOUND	UNITS_TEXT	IP
O=C(O)c1cn(C2CC2)c2cc(N3CCNCC3)c(F)cc2c1=O [CIPROFLOXACIN]	mg/dL	9.5
O=C(O)c1cc(/N=N/c2ccc(S(=O)(=O)Nc3ccccn3)cc2)ccc1O [SULFASALAZINE]	mg/dL	9.4
Clc1ccccc1CN1CCc2sccc2C1 [TICLOPIDINE]	mg/dL	9.8

Exercise: # query: IP of entry COc1ccc(Cc2nccc3cc(OC)c(OC)cc23)cc1OC [PAPAVERINE]
Solution: 7.8

Exercise: # query: IP of entry CC(=O)Oc1ccccc1C(=O)O [ASPIRIN]
Solution: 9.6

Exercise: # query: IP of entry NC(=O)N1c2ccccc2C=Cc2ccccc21 [CARBAMAZEPINE]
Solution: 9

---

Species on record: Rattus norvegicus
Assay: Open TG-GATES - Regimen: Single
Type: toxicity, organism-based, Sprague-Dawley
Design: regimen Single, gender Male, age 6 weeks
Settings: in vivo, po, 1000 mg/kg, 24 h, tissue Blood, route gavage, dose level High
Label key: rule met means Lym under 80%; rule not met means Lym of 80% or more.

COMPOUND	CATEGORY
O=C(O)c1cc(/N=N/c2ccc(S(=O)(=O)Nc3ccccn3)cc2)ccc1O	rule not met

Now look at this one.
Exercise: Please let me know if CCc1cc(C(N)=S)ccn1 [ETHIONAMIDE] shows Lym below 80%.
Solution: rule met

---

Species: Rattus norvegicus
Assay: Open TG-GATES - Regimen: Single
Assay type: toxicity, organism-based, Sprague-Dawley
Set-up: regimen Single, gender Male, age 6 weeks
Details: in vivo, po, 300 mg/kg, 3 h, tissue Plasma, route gavage, dose level Middle
Property: K; scope: individual compounds
Answer in meq/L, number only, no unit symbol.

The examples below pair each entry with its known result.
COMPOUND	RECORDED_RESULT
O=C(O)c1cc(/N=N/c2ccc(S(=O)(=O)Nc3ccccn3)cc2)ccc1O	3.7
O=C(O)c1cn(C2CC2)c2cc(N3CCNCC3)c(F)cc2c1=O	4.7
Clc1ccccc1CN1CCc2sccc2C1	3.7

Exercise: # query: K of entry `C[C@H](CS)C(=O)N1CCC[C@H]1C(=O)O`
Solution: 5

Exercise: # query: K of entry CCc1cc(C(N)=S)ccn1 [ETHIONAMIDE]
Solution: 4.2

---

Species: Rattus norvegicus
Experiment: Open TG-GATES - Regimen: Daily Repeat
Format: toxicity, organism-based, Sprague-Dawley
Design: regimen Daily Repeat, gender Male, age 6 weeks
Details: in vivo, po, 0 mg/kg, […], tissue Plasma, route gavage, dose level Control, time 28 day
Property: A/G; scope: individual compounds
The answer should be written as a number, with no unit following it.

COMPOUND	A/G
Cn1c(=O)c2[nH]cnc2n(C)c1=O.O	1
O=C(O)c1cc(/N=N/c2ccc(S(=O)(=O)Nc3ccccn3)cc2)ccc1O	1.3
COc1ccc(Cc2nccc3cc(OC)c(OC)cc23)cc1OC	1.1

Exercise: # query: A/G of entry `NC(=O)N/N=C/c1ccc([N+](=O)[O-])o1`
Solution: 0.8

Exercise: # query: A/G of entry `COc1ccc2c(c1)c(CC(=O)O)c(C)n2C(=O)c1ccc(Cl)cc1`
Solution: 1.9

Exercise: # query: A/G of entry CCc1cc(C(N)=S)ccn1 [ETHIONAMIDE]
Solution: 1.8

Exercise: # query: A/G of entry `CN(C)CCC=C1c2ccccc2CCc2ccccc21`
Solution: 0.8

---

Species: Rattus norvegicus
Assay: Open TG-GATES - Regimen: Single
Assay type: toxicity, organism-based, Sprague-Dawley
Design: regimen Single, gender Male, age 6 weeks
Details: in vivo, po, 300 mg/kg, 6 h, tissue Blood, route gavage, dose level Middle
ENDPOINT: Lym (%)
Answer in %, number only, no unit symbol.

The examples below pair each entry with its known result.
COMPOUND	Lym [%]
Clc1ccccc1CN1CCc2sccc2C1	77
C[C@H](CS)C(=O)N1CCC[C@H]1C(=O)O	80
CCc1cc(C(N)=S)ccn1 [ETHIONAMIDE]	80.6

Proceed to the following item.
Exercise: # query: Lym of entry `O=C(O)c1cc(/N=N/c2ccc(S(=O)(=O)Nc3ccccn3)cc2)ccc1O`
Solution: 76.2

---

Species on record: Rattus norvegicus
Assay: Open TG-GATES - Regimen: Daily Repeat
Type: toxicity, organism-based, Sprague-Dawley
Design: regimen Daily Repeat, gender Male, age 6 weeks
Settings: in vivo, po, 0 mg/kg, […], tissue Plasma, route gavage, dose level Control, time 14 day
Property: gamma-GTP; scope: individual compounds
Answer in IU/L, number only, no unit symbol.

The examples below pair each entry with its known result.
COMPOUND	UNITS_TEXT	gamma-GTP
COc1ccc(Cc2nccc3cc(OC)c(OC)cc23)cc1OC	IU/L	2.4
C[C@H](CS)C(=O)N1CCC[C@H]1C(=O)O	IU/L	1.2
NC(=O)N/N=C/c1ccc([N+](=O)[O-])o1	IU/L	1.2
CCCC(CCC)C(=O)O	IU/L	1.2
Clc1ccccc1CN1CCc2sccc2C1	IU/L	1.2

Exercise: # query: gamma-GTP of entry CCc1cc(C(N)=S)ccn1 [ETHIONAMIDE]
Solution: 1.4

Exercise: # query: gamma-GTP of entry `O=C(O)c1cc(/N=N/c2ccc(S(=O)(=O)Nc3ccccn3)cc2)ccc1O`
Solution: 1.2

Exercise: # query: gamma-GTP of entry NC(=O)N1c2ccccc2C=Cc2ccccc21 [CARBAMAZEPINE]
Solution: 1

Exercise: # query: gamma-GTP of entry `Cn1c(=O)c2[nH]cnc2n(C)c1=O.O`
Solution: 2.6

Exercise: # query: gamma-GTP of entry `CO[C@H]1/C=C/O[C@@]2(C)Oc3c(C)c(O)c4c(O)c(c(/C=N/N5CCN(C)CC5)c(O)c4c3C2=O)NC(=O)/C(C)=C\C=C\[C@H](C)[C@H](O)[C@@H](C)[C@@H](O)[C@@H](C)[C@H](OC(C)=O)[C@@H]1C`
Solution: 1.4

Exercise: # query: gamma-GTP of entry `O=C(O)c1cn(C2CC2)c2cc(N3CCNCC3)c(F)cc2c1=O`
Solution: 1.2

Exercise: # query: gamma-GTP of entry `CN(C)CCC=C1c2ccccc2CCc2ccccc21`
Solution: 0.4

Exercise: # query: gamma-GTP of entry `CC(=O)Oc1ccccc1C(=O)O`
Solution: 1

Exercise: # query: gamma-GTP of entry `COc1ccc2c(c1)c(CC(=O)O)c(C)n2C(=O)c1ccc(Cl)cc1`
Solution: 1.6

Exercise: # query: gamma-GTP of entry CSc1ccc2c(c1)N(CCC1CCCCN1C)c1ccccc1S2 (stereo not given)
Solution: 0.8
